target: AC8/CaM PPI (Homo sapiens, UniProt P0DP23); construct: confirmed as an AC1/AC8 non-selective hit against full-length AC1- and AC8-CaM in the NanoBiT assay; The hCaM residues 1–149, residues 1–1,248 of rat AC8 (rAC8); expressed in transfected cells; host or cells: HEK293T, transient transfection; experiment: AC8/CaM NanoBiT assay in HEK293T cells; format: cell-based, rat; conditions: HEK293T, thapsigargin-stimulated, AUC; read-out: Nanobit: AC8-CaM IC50 (μM ± SEM)
property: IC50
Returns: string containing the numeric result and its unit.

Task: What value of IC50 has been reported for the following molecule? CC(=O)Oc1c(Sc2ccc(Cl)cc2)c(C)nn1C(C)(C)C
Output: 13.1 µM

Task: Again, but for CC1=C(CCC(=O)O)c2cc3[nH]c(cc4nc(cc5[nH]c(cc1n2)c(C)c5C(C)O)C(C)=C4C(C)O)c(C)c3CCC(=O)O (stereo not shown)
Output: 11.6 µM

Task: Okay, and CCCCCCCCCCCCCCCC[N+](C)(C)CCN(Cc1ccc(OC)cc1)c1ncccn1 ?
Output: 18.5 µM

Task: Next up: Cc1cc2nc3ccc(N(C)C)cc3[s+]c2cc1N [Compound 1, Tolonium Chloride]
Output: 8.4 µM
